Tested on: SUM149PT spheroids with HUVEC/MSC, viability
METHOD NOTES: Anticancer human tumor SUM149PT cell line growth inhibition [GQUAD];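 also: spheroids exposed to drugs for seven days before readout; percent viability relative to DMSO vehicle control taken as 100%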
CONDITION NOTES: second compound 0.0316 µM; first compound 3.16 µM; stronger effect = lower value
MEASURE: viability, T/C (%)
Entry rule: numbers only, all in %.

Looking up CC1COCCN1c1cc(-c2ccnn2C)c2ccnc(-c3ccn[nH]3)c2n1 (stereo not drawn) + CN(C)c1ccc(Nc2c3ccc(NC(=O)CCN4CCCC4)cc3nc3cc(NC(=O)CCN4CCCC4)ccc23)cc1 , I found its viability, T/C recorded as 38.2

Reported viability, T/C for C=CC(=O)N1CCN(c2nc(=O)n(-c3c(C)ccnc3C(C)C)c3nc(-c4c(O)cccc4F)c(F)cc23)C(C)C1 (stereo not drawn) + Cc1[nH]c2ccc(F)cc2c1-c1nc2c3cccnc3c3ncccc3c2[nH]1 was 125

Reported viability, T/C ( O=C(c1cc(Cc2n[nH]c(=O)c3ccccc23)ccc1F)N1CCN(C(=O)C2CC2)CC1 + Cc1[nH]c2ccc(F)cc2c1-c1nc2c3cccnc3c3ncccc3c2[nH]1 ) = 93.2
